Biological target: T1, IL-23 receptor on the surface of HEK-Blue IL-23 cells (UniProt Q5VWK5 24-629, limits assumed)
T1 sequence (looked up): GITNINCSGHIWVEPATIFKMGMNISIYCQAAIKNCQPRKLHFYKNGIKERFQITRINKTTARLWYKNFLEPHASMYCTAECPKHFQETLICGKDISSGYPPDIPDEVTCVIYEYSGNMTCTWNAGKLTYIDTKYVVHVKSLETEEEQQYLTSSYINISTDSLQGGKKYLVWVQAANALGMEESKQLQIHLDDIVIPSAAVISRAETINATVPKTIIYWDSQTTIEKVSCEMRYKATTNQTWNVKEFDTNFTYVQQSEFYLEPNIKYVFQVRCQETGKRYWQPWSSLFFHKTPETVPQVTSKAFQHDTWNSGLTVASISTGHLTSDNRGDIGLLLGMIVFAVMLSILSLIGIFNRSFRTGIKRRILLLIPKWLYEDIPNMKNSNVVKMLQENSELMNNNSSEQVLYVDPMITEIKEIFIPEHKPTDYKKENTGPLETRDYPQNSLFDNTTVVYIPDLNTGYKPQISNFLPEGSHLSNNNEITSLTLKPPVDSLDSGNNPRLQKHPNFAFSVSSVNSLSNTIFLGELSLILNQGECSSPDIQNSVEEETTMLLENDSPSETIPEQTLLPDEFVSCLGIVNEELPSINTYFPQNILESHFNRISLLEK
Assay: cell-based or functional assay
Starred links: 1 amine or outer side, 2 acyl side, 3 side chain; linkers in the order of their positions; H or OH if unused. Positions of bridges follow the written chain, without caps; N, C: chain ends. Non-standard residues stand in square brackets, D forms with d. No end group written: not given here. Yde = (2S)-2-amino-3-[4-[2-(dimethylamino)ethoxy]phenyl]propanoic acid, CN(C)CCOc1ccc(C[C@H](N[*:1])C(=O)[*:2])cc1; Trp(7-Me) = Cc1cccc2c(C[C@H](N)C(=O)O)c[nH]c12; αMeLys(Me2) = CN(C)CCCC[C@](C)(N)C(=O)O; 2Nal = N[C@@H](Cc1ccc2ccccc2c1)C(=O)O; 3Pal = N[C@@H](Cc1cccnc1)C(=O)O; Dad = desamino-aspartamic acid; αMeL = CC(C)C[C@](C)(N)C(=O)O; Thp = NC1(C(=O)O)CCOCC1; Ava = NCCCCC(=O)O; Sar = CNCC(=O)O
measured attribute: pSTAT3 (nM)
Give bare numbers, in nM.

Take a look at these entries with their results.
{"columns": ["binder", "measured number"],
 "data": [
  ["[Ava]CNT[Trp(7-Me)]K(Ac)C[Yde][2Nal][Thp]ENH[Sar]-NH2 (lactam N-11; disulfide 2-7; SMILES CC(=O)NCCCC[C@@H]1NC(=O)[C@H](Cc2c[nH]c3c(C)cccc23)NC(=O)[C@H]([C@@H](C)O)NC(=O)[C@H](CC(N)=O)NC(=O)[C@@H]2CSSC[C@H](NC1=O)C(=O)N[C@@H](Cc1ccc(OCCN(C)C)cc1)C(=O)N[C@@H](Cc1ccc3ccccc3c1)C(=O)NC1(CCOCC1)C(=O)N[C@H](C(=O)N[C@@H](CC(N)=O)C(=O)N[C@@H](Cc1c[nH]cn1)C(=O)N(C)CC(N)=O)CCC(=O)NCCCCC(=O)N2) [Compound of SEQ ID NO: 46]", 0.84],
  ["[Ava]CK[Trp(7-Me)]K(Ac)C[Yde][2Nal][αMeLys(Me2)]EN[3Pal][Sar]-NH2 (lactam N-10; disulfide 2-6; not fully specified (residue 3); printed as Apt(§1)-C(§3)(@2)-K[aAc](@3)-Wim-K[Ac]-C(@2)-Yde-Nal-MKdm-E(§1)-N-Pal-Sar-NH2; also: K3 acetylated (K[aAc]), acetyl site not given here, ε-NH2 takes the Cys2 bond) [Compound of SEQ ID NO: 149]", 0.04]
]}

Problem: Reported pSTAT3 (nM) for [Dad]CNT[Trp(7-Me)]K(Ac)C[Yde][2Nal][αMeL]KN[3Pal][Sar]-NH2 (lactam (positions not given here); disulfide 2-7; not fully specified (bridges); printed as Dad(§1)-C(@2)-N-T-Wim-K[Ac]-C(@2)-Yde-Nal-Mle-K(§1)-N-Pal-Sar-NH2) [Compound of SEQ ID NO: 103] : what is it?
Solution: 0.11
